Hello, the source for this data is patent US20250017856A1, in case you need it.

Procedure Text: Hydrodynamic diameter and polydispersity index by dynamic light scattering
Type: physicochemical
Assay Conditions: FxNP, sinLuc, DOPC
Values of Hydrodynamic diameter (nm) greater than or equal to 200 nm map to True; values below map to False.

(Q) Please tell me: is the compound CN(C)CC(=O)N=S(=O)(CCCCCCCCCC1Cc2cc(O)ccc2C2CCC3(C)C(O)CCC3C12)CCCC(F)(F)C(F)(F)F (stereo not shown) at or over 200 nm in terms of Hydrodynamic diameter (nm)?
(A) False

(Q) Kindly determine if Hydrodynamic diameter (nm) recorded for CC12CCC3c4ccc(O)cc4CC(CCCCCCCCCS(=O)(CCCC(F)(F)C(F)(F)F)=NC(=O)Cn4ccnc4)C3C1CCC2O (stereo not shown) is above or exactly 200 nm.
(A) True

(Q) hey, is Hydrodynamic diameter (nm) for this one >= 200 nm? CC12CCC3c4ccc(O)cc4CC(CCCCCCCCCS(=O)(CCCC(F)(F)C(F)(F)F)=NC(=O)CCn4ccnc4)C3C1CCC2O (stereo not shown)
(A) False

(Q) Textbook exercise: given the entry CC12CCC3c4ccc(O)cc4CC(CCCCCCCCCS(=O)(CCCC(F)(F)C(F)(F)F)=NC(=O)CN4CCCCC4)C3C1CCC2O (stereo not shown) , state whether its Hydrodynamic diameter (nm) is greater than or equal to 200 nm.
(A) True

(Q) Evaluate CC12CCC3c4ccc(O)cc4CC(CCCCCCCCCS(=O)(CCCC(F)(F)C(F)(F)F)=NC(=O)CN4CCOCC4)C3C1CCC2O (stereo not shown) : Hydrodynamic diameter (nm) at minimum 200 nm?
(A) True

(Q) # bool: Hydrodynamic diameter (nm) of CC12CCC3c4ccc(O)cc4CC(CCCCCCCCCS(=O)(CCCC(F)(F)C(F)(F)F)=NC(=O)CCN4CCOCC4)C3C1CCC2O (stereo not shown) >= 200 nm
(A) True

(Q) Check the entry CC12CCC3c4ccc(O)cc4CC(CCCCCCCCCS(=O)(CCCC(F)(F)C(F)(F)F)=NC(=O)CCN4CCCCC4)C3C1CCC2O (stereo not shown) : does Hydrodynamic diameter (nm) equal or exceed 200 nm?
(A) False

---

Procedure Text: RNA encapsulation efficiency (modified Quant-iT RiboGreen assay) and loading
Format: physicochemical
Assay Conditions: FxNP, siFLuc, DOPC
Please go through the items and note down their Encapsulation efficiency (%).
Reply numerically in %, unit not repeated.

(Q) Can you share its Encapsulation efficiency (%)? I mean this molecule: CC12CCC3c4ccc(O)cc4CC(CCCCCCCCCS(=O)(CCCC(F)(F)C(F)(F)F)=NC(=O)CCN4CCCCC4)C3C1CCC2O (stereo not shown)
(A) 96.6

(Q) Entry CC12CCC3c4ccc(O)cc4CC(CCCCCCCCCS(=O)(CCCC(F)(F)C(F)(F)F)=NC(=O)CCN4CCOCC4)C3C1CCC2O (stereo not shown) : reported Encapsulation efficiency (%) = ?
(A) 80.3

(Q) Dear colleague, I am looking for the recorded Encapsulation efficiency (%) of the following molecule: CN(C)CC(=O)N=S(=O)(CCCCCCCCCC1Cc2cc(O)ccc2C2CCC3(C)C(O)CCC3C12)CCCC(F)(F)C(F)(F)F (stereo not shown)
(A) 91.3

(Q) Consider the molecule CC12CCC3c4ccc(O)cc4CC(CCCCCCCCCS(=O)(CCCC(F)(F)C(F)(F)F)=NC(=O)CN4CCOCC4)C3C1CCC2O (stereo not shown) and give its measured Encapsulation efficiency (%).
(A) 58.7

(Q) Endpoint output: Encapsulation efficiency (%) of CC12CCC3c4ccc(O)cc4CC(CCCCCCCCCS(=O)(CCCC(F)(F)C(F)(F)F)=NC(=O)CCn4ccnc4)C3C1CCC2O (stereo not shown) . Value?
(A) 87.5

(Q) Fill blank: measured Encapsulation efficiency (%) of the molecule CC12CCC3c4ccc(O)cc4CC(CCCCCCCCCS(=O)(CCCC(F)(F)C(F)(F)F)=NC(=O)CN4CCCCC4)C3C1CCC2O (stereo not shown) is ____.
(A) 90.8

(Q) Fill in the blank: the reported Encapsulation efficiency (%) of CC12CCC3c4ccc(O)cc4CC(CCCCCCCCCS(=O)(CCCC(F)(F)C(F)(F)F)=NC(=O)Cn4ccnc4)C3C1CCC2O (stereo not shown) is ____.
(A) 81.7

---

Procedure Text: RNA encapsulation efficiency (modified Quant-iT RiboGreen assay) and loading
Type: physicochemical
Assay Conditions: FxNP, siFLuc, DSPC
Property Label: Encapsulation efficiency (%)

(Q) # query: Encapsulation efficiency (%) of entry CC12CCC3c4ccc(O)cc4CC(CCCCCCCCCS(=O)(CCCC(F)(F)C(F)(F)F)=NC(=O)CN)C3C1CCC2O (stereo not shown) [7m]
(A) 88.1%

(Q) Requested field: Encapsulation efficiency (%). Item: CN(C)CCC(=O)N=S(=O)(CCCCCCCCCC1Cc2cc(O)ccc2C2CCC3(C)C(O)CCC3C12)CCCC(F)(F)C(F)(F)F (stereo not shown) [7k]
(A) 80.2%

(Q) Need Encapsulation efficiency (%) of CC12CCC3c4ccc(O)cc4CC(CCCCCCCCCS(=O)(CCCC(F)(F)C(F)(F)F)=NC(=O)CCN4CCCC4)C3C1CCC2O (stereo not shown) [7j] , thanks.
(A) 72.0%

(Q) Look up Encapsulation efficiency (%): CC12CCC3c4ccc(O)cc4CC(CCCCCCCCCS(=O)(CCCC(F)(F)C(F)(F)F)=NC(=O)CCN4CCCCC4)C3C1CCC2O (stereo not shown) [7g]
(A) 94.7%

---

Procedure Text: Zeta potential (Malvern Zetasizer)
Type: physicochemical
Assay Conditions: FxNP, sinLuc, DOPC
Property Label: Zeta potential (mV)
Reply with just the number (in mV).

(Q) # input compound: CC12CCC3c4ccc(O)cc4CC(CCCCCCCCCS(=O)(CCCC(F)(F)C(F)(F)F)=NC(=O)CCn4ccnc4)C3C1CCC2O (stereo not shown) [7c] ; wanted: its Zeta potential (mV)
(A) −10.97

(Q) // lookup Zeta potential (mV) for CC12CCC3c4ccc(O)cc4CC(CCCCCCCCCS(=O)(CCCC(F)(F)C(F)(F)F)=NC(=O)CN4CCOCC4)C3C1CCC2O (stereo not shown) [7a]
(A) −11.80

(Q) I'd like to know its Zeta potential (mV). The compound in question is CC12CCC3c4ccc(O)cc4CC(CCCCCCCCCS(=O)(CCCC(F)(F)C(F)(F)F)=NC(=O)Cn4ccnc4)C3C1CCC2O (stereo not shown) [7b]
(A) −11.53

(Q) Which Zeta potential (mV) is listed for CC12CCC3c4ccc(O)cc4CC(CCCCCCCCCS(=O)(CCCC(F)(F)C(F)(F)F)=NC(=O)CCN4CCOCC4)C3C1CCC2O (stereo not shown) [7d] ?
(A) −14.27

(Q) Can you share its Zeta potential (mV)? I mean this compound: CC12CCC3c4ccc(O)cc4CC(CCCCCCCCCS(=O)(CCCC(F)(F)C(F)(F)F)=NC(=O)CN4CCCCC4)C3C1CCC2O (stereo not shown) [7e]
(A) −7.23

(Q) Can you look up the measured Zeta potential (mV) of CN(C)CC(=O)N=S(=O)(CCCCCCCCCC1Cc2cc(O)ccc2C2CCC3(C)C(O)CCC3C12)CCCC(F)(F)C(F)(F)F (stereo not shown) [7f] for me?
(A) −3.97

(Q) Bench note: what Zeta potential (mV) did CC12CCC3c4ccc(O)cc4CC(CCCCCCCCCS(=O)(CCCC(F)(F)C(F)(F)F)=NC(=O)CCN4CCCCC4)C3C1CCC2O (stereo not shown) [7g] show?
(A) 0.01

---

Procedure Text: RNA encapsulation efficiency (modified Quant-iT RiboGreen assay) and loading
Type: physicochemical
Assay Conditions: FxNP, siFLuc, DSPC
Text: […]
Property Label: Encapsulation efficiency (%)
Please reply with the bare figure in % and do not write the unit itself.

(Q) Value lookup for Encapsulation efficiency (%); key = CN1CCN(CC(=O)N=S(=O)(CCCCCCCCCC2Cc3cc(O)ccc3C3CCC4(C)C(O)CCC4C23)CCCC(F)(F)C(F)(F)F)CC1 (stereo not drawn)
(A) 52.8

(Q) # lookup: Encapsulation efficiency (%) of CC12CCC3c4ccc(O)cc4CC(CCCCCCCCCS(=O)(CCCC(F)(F)C(F)(F)F)=NC(=O)CCn4ccnc4)C3C1CCC2O (stereo not drawn)
(A) 89.3

(Q) So what does the record say about Encapsulation efficiency (%) for C[C@]12CC[C@@H]3c4ccc(O)cc4C[C@@H](CCCCCCCCC[S+]([O-])CCCC(F)(F)C(F)(F)F)[C@H]3[C@@H]1CC[C@@H]2O (stereo partly drawn) [FV, fulvestrant, reference compound] ?
(A) 14.5

(Q) Given the compound CC12CCC3c4ccc(O)cc4CC(CCCCCCCCCS(=O)(CCCC(F)(F)C(F)(F)F)=NC(=O)CN4CCCCC4)C3C1CCC2O (stereo not drawn) , what is its reported Encapsulation efficiency (%)?
(A) 90.8

(Q) Give the measured Encapsulation efficiency (%) of CC12CCC3c4ccc(O)cc4CC(CCCCCCCCCS(=O)(CCCC(F)(F)C(F)(F)F)=NC(=O)Cn4ccnc4)C3C1CCC2O (stereo not drawn) .
(A) 85.5

(Q) For the compound CC12CCC3c4ccc(O)cc4CC(CCCCCCCCCS(=O)(CCCC(F)(F)C(F)(F)F)=NC(=O)C[N+](C)(C)C)C3C1CCC2O (stereo not drawn) , what Encapsulation efficiency (%) is on record?
(A) 87.6
